Recorded measurements of Biodistribution: Bone, one per entry
Assay: Biodistribution of [111In]In-radiocomplexes in healthy mice
Assay type: in vivo
Settings: 1 h p.i.
Give a bare numeral; the unit % I.D./g is implied.

Example entries begin here.
The measured Biodistribution: Bone associated with O=C([O-])CN1CCN(CC(=O)[O-])CCN(C(CCC(=O)NCc2ccc(-c3nncnn3)cc2)C(=O)[O-])CCN(CC(=O)[O-])CC1.[111In+3] (stereo not shown) [[111In]In-DOTAGA-Tz] reads 0.5

The measured Biodistribution: Bone associated with O=C([O-])CN1CCN(CC(=O)[O-])CCN(CC(=O)NCCOCCOCCOCCOCCOCCOCCOCCOCCOCCOCCOCCNC(=O)CCCC(=O)NCc2ccc(-c3nncnn3)cc2)CCN(CC(=O)[O-])CC1.[111In+3] [[111In]In-DOTA-PEG-Tz] reads 0.11

The measured Biodistribution: Bone associated with O=C([O-])CN1CCN(CC(=O)[O-])CCN(CC(=O)NCc2ccc(-c3nncnn3)cc2)CCN(CC(=O)[O-])CC1.[111In+3] [[111In]In-DOTA-Tz] reads 0.12

Further cases:
The measured Biodistribution: Bone associated with O=C([O-])CN1CCN(CC(=O)[O-])CCN(C(CCC(=O)NCCOCCOCCOCCOCCOCCOCCOCCOCCOCCOCCOCCNC(=O)CCCC(=O)NCc2ccc(-c3nncnn3)cc2)C(=O)[O-])CCN(CC(=O)[O-])CC1.[111In+3] (stereo not shown) [[111In]In-DOTAGA-PEG-Tz] reads 0.17
